- assay-summary: Relative potency expressed in percent to that of neurotensin was measured using guinea pig atria
- Assay type: functional
Peptide text beside a SMILES is read from it.
The label is 1 for Relative potency below 3% and -1 for Relative potency equal to or exceeding 3%.

CC[C@H](C)[C@H](NC(=O)[C@H](Cc1ccc(O)cc1)NC(=O)[C@@H]1CCCN1)C(=O)N[C@@H](CC(C)C)C(=O)O (H-PYIL-OH)    1
CC[C@H](C)[C@H](NC(=O)[C@H](Cc1ccc(O)cc1)NC(=O)[C@@H]1CCCN1C(=O)[C@@H](N)CCCN=C(N)N)C(=O)N[C@@H](CC(C)C)C(=O)O    1
CC[C@H](C)[C@H](NC(=O)[C@H](Cc1ccc(O)cc1)NC(=O)[C@@H]1CCCN1C(=O)[C@H](CCCN=C(N)N)NC(=O)[C@H](CCCN=C(N)N)NC(=O)[C@@H]1CCCN1C(=O)[C@H](CCCCN)NC(=O)[C@H](CC(N)=O)NC(=O)[C@H](CCC(=O)O)NC(=O)[C@H](Cc1ccc(O)cc1)NC(=O)[C@H](CC(C)C)NC(=O)[C@@H]1CCC(=O)N1)C(=O)O    1
CC(C)C[C@H](NC(=O)[C@@H]1CCC(=O)N1)C(=O)N[C@@H](Cc1ccc(O)cc1)C(=O)N[C@@H](CCC(=O)O)C(=O)N[C@@H](CC(N)=O)C(=O)N[C@@H](CCCCN)C(=O)N1CCC[C@H]1C(=O)N[C@@H](CCCN=C(N)N)C(=O)N[C@@H](CCCN=C(N)N)C(=O)N1CCC[C@H]1C(=O)N[C@@H](Cc1ccc(O)cc1)C(=O)O    1
CC[C@H](C)[C@H](NC(=O)[C@H](Cc1ccccc1)NC(=O)[C@@H]1CCCN1C(=O)[C@H](CCCN=C(N)N)NC(=O)[C@H](CCCN=C(N)N)NC(=O)[C@@H]1CCCN1C(=O)[C@H](CCCCN)NC(=O)[C@H](CC(N)=O)NC(=O)[C@H](CCC(=O)O)NC(=O)[C@H](Cc1ccc(O)cc1)NC(=O)[C@H](CC(C)C)NC(=O)[C@@H]1CCC(=O)N1)C(=O)N[C@@H](CC(C)C)C(=O)O    -1
CC(C)C[C@H](NC(=O)[C@@H]1CCC(=O)N1)C(=O)N[C@@H](Cc1ccc(O)cc1)C(=O)N[C@@H](CCC(=O)O)C(=O)N[C@@H](CC(N)=O)C(=O)N[C@@H](CCCCN)C(=O)N1CCC[C@H]1C(=O)N[C@@H](CCCN=C(N)N)C(=O)N[C@@H](CCCN=C(N)N)C(=O)N1CCC[C@H]1C(=O)O    1

Ask: Item CC[C@H](C)[C@H](NC(=O)[C@H](Cc1ccc(O)cc1)NC(=O)[C@@H]1CCCN1C(=O)[C@@H](C)NC(=O)[C@H](CCCN=C(N)N)NC(=O)[C@@H]1CCCN1C(=O)[C@H](CCCCN)NC(=O)[C@H](CC(N)=O)NC(=O)[C@H](CCC(=O)O)NC(=O)[C@H](Cc1ccc(O)cc1)NC(=O)[C@H](CC(C)C)NC(=O)[C@@H]1CCC(=O)N1)C(=O)N[C@@H](CC(C)C)C(=O)O : Relative potency beneath 3%, strictly?
Reply: 1

Ask: Item CC[C@H](C)[C@H](NC(=O)[C@H](CC(C)C)NC(=O)[C@@H]1CCCN1C(=O)[C@H](CCCN=C(N)N)NC(=O)[C@H](CCCN=C(N)N)NC(=O)[C@@H]1CCCN1C(=O)[C@H](CCCCN)NC(=O)[C@H](CC(N)=O)NC(=O)[C@H](CCC(=O)O)NC(=O)[C@H](Cc1ccc(O)cc1)NC(=O)[C@H](CC(C)C)NC(=O)[C@@H]1CCC(=O)N1)C(=O)N[C@@H](CC(C)C)C(=O)O : Relative potency beneath 3%, strictly?
Reply: 1

Ask: Item CC[C@H](C)[C@H](NC(=O)[C@@H](Cc1c[nH]c2ccccc12)NC(=O)[C@@H]1CCCN1C(=O)[C@H](CCCN=C(N)N)NC(=O)[C@H](CCCN=C(N)N)NC(=O)[C@@H]1CCCN1C(=O)[C@H](CCCCN)NC(=O)[C@H](CC(N)=O)NC(=O)[C@H](CCC(=O)O)NC(=O)[C@H](Cc1ccc(O)cc1)NC(=O)[C@H](CC(C)C)NC(=O)[C@@H]1CCC(=O)N1)C(=O)N[C@@H](CC(C)C)C(=O)O : Relative potency beneath 3%, strictly?
Reply: 1

Ask: Item CC[C@H](C)[C@H](NC(=O)[C@H](C)NC(=O)[C@@H]1CCCN1C(=O)[C@H](CCCN=C(N)N)NC(=O)[C@H](CCCN=C(N)N)NC(=O)[C@@H]1CCCN1C(=O)[C@H](CCCCN)NC(=O)[C@H](CC(N)=O)NC(=O)[C@H](CCC(=O)O)NC(=O)[C@H](Cc1ccc(O)cc1)NC(=O)[C@H](CC(C)C)NC(=O)[C@@H]1CCC(=O)N1)C(=O)N[C@@H](CC(C)C)C(=O)O : Relative potency beneath 3%, strictly?
Reply: 1

Ask: Item CC[C@H](C)[C@H](NC(=O)[C@H](Cc1ccc(O)cc1)NC(=O)[C@@H]1CCCN1C(=O)[C@H](CCCN=C(N)N)NC(=O)[C@H](CCCN=C(N)N)NC(=O)[C@@H]1CCCN1C(=O)[C@@H](N)CCCCN)C(=O)N[C@@H](CC(C)C)C(=O)O : Relative potency beneath 3%, strictly?
Reply: -1

Ask: Item CC[C@H](C)[C@H](NC(=O)[C@H](Cc1ccc(O)cc1)NC(=O)[C@@H]1CCCN1C(=O)[C@H](CCCN=C(N)N)NC(=O)[C@H](CCCN=C(N)N)NC(=O)[C@@H]1CCCN1C(=O)[C@H](CCCCN)NC(=O)[C@H](CC(N)=O)NC(=O)[C@H](CCC(=O)O)NC(=O)[C@H](Cc1ccc(O)cc1)NC(=O)[C@@H](N)CC(C)C)C(=O)N[C@@H](CC(C)C)C(=O)O : Relative potency beneath 3%, strictly?
Reply: -1

* * *

- assay-summary: Relative potency expressed in percent to that of neurotensin was measured using rat stomach strips assay
- Type: functional
Peptide text beside a SMILES is read from it.
measured-property: Relative potency (%)
Give the value, in units of %, as a plain number.

For orientation, consider the following solved cases.
CC[C@H](C)[C@H](NC(=O)[C@H](Cc1ccccc1)NC(=O)[C@@H]1CCCN1C(=O)[C@H](CCCN=C(N)N)NC(=O)[C@H](CCCN=C(N)N)NC(=O)[C@@H]1CCCN1C(=O)[C@H](CCCCN)NC(=O)[C@H](CC(N)=O)NC(=O)[C@H](CCC(=O)O)NC(=O)[C@H](Cc1ccc(O)cc1)NC(=O)[C@H](CC(C)C)NC(=O)[C@@H]1CCC(=O)N1)C(=O)N[C@@H](CC(C)C)C(=O)O    16
CC[C@H](C)[C@H](NC(=O)[C@H](Cc1ccc(O)cc1)NC(=O)[C@@H]1CCCN1C(=O)[C@@H](C)NC(=O)[C@H](CCCN=C(N)N)NC(=O)[C@@H]1CCCN1C(=O)[C@H](CCCCN)NC(=O)[C@H](CC(N)=O)NC(=O)[C@H](CCC(=O)O)NC(=O)[C@H](Cc1ccc(O)cc1)NC(=O)[C@H](CC(C)C)NC(=O)[C@@H]1CCC(=O)N1)C(=O)N[C@@H](CC(C)C)C(=O)O    1.5

Ask: Look up Relative potency for this compound: CC[C@H](C)[C@H](NC(=O)[C@H](Cc1ccc(O)cc1)NC(=O)[C@@H]1CCCN1)C(=O)N[C@@H](CC(C)C)C(=O)O (H-PYIL-OH)
Reply: 0

* * *

The entries below come with measured Relative potency values attached.
- assay-summary: Relative potency expressed in percent to that of neurotensin was measured using guinea pig atria
- Format: functional
Give the value, in units of %, as a plain number.

CC[C@H](C)[C@H](NC(=O)[C@H](Cc1c[nH]c2ccccc12)NC(=O)[C@@H]1CCCN1C(=O)[C@H](CCCN=C(N)N)NC(=O)[C@H](CCCN=C(N)N)NC(=O)[C@@H]1CCCN1C(=O)[C@H](CCCCN)NC(=O)[C@H](CC(N)=O)NC(=O)[C@H](CCC(=O)O)NC(=O)[C@H](Cc1ccc(O)cc1)NC(=O)[C@H](CC(C)C)NC(=O)[C@@H]1CCC(=O)N1)C(=O)N[C@@H](CC(C)C)C(=O)O    3.2

Ask: Look up Relative potency for this molecule: CC[C@H](C)[C@H](NC(=O)[C@H](Cc1ccc(O)cc1)NC(=O)[C@@H]1CCCN1C(=O)[C@H](CCCNC(=N)N)NC(=O)[C@@H](N)CCCNC(=N)N)C(=O)N[C@@H](CC(C)C)C(=O)O
Reply: 52

* * *

- assay-summary: Relative potency expressed in percent to that of neurotensin was measured using rat stomach strips assay
- Format: functional
The entries below come with measured Relative potency values attached.
Give the value, in units of %, as a plain number.

For orientation, consider the following solved cases.
CC[C@H](C)[C@H](NC(=O)[C@H](Cc1ccc(O)cc1)NC(=O)[C@@H]1CCCN1C(=O)[C@H](CCCN=C(N)N)NC(=O)[C@H](CCCN=C(N)N)NC(=O)[C@@H]1CCCN1C(=O)[C@@H](N)CCCCN)C(=O)N[C@@H](CC(C)C)C(=O)O    78
CC[C@H](C)[C@H](NC(=O)[C@H](Cc1ccc(O)cc1)NC(=O)[C@@H]1CCCN1C(=O)[C@H](CCCN=C(N)N)NC(=O)[C@H](CCCN=C(N)N)NC(=O)[C@@H]1CCCN1C(=O)[C@H](CCCCN)NC(=O)[C@H](CC(N)=O)NC(=O)[C@H](CCC(=O)O)NC(=O)[C@H](Cc1ccc(O)cc1)NC(=O)[C@@H](N)CC(C)C)C(=O)N[C@@H](CC(C)C)C(=O)O    90
CC[C@H](C)[C@H](NC(=O)[C@H](Cc1c[nH]c2ccccc12)NC(=O)[C@@H]1CCCN1C(=O)[C@H](CCCN=C(N)N)NC(=O)[C@H](CCCN=C(N)N)NC(=O)[C@@H]1CCCN1C(=O)[C@H](CCCCN)NC(=O)[C@H](CC(N)=O)NC(=O)[C@H](CCC(=O)O)NC(=O)[C@H](Cc1ccc(O)cc1)NC(=O)[C@H](CC(C)C)NC(=O)[C@@H]1CCC(=O)N1)C(=O)N[C@@H](CC(C)C)C(=O)O    130
CC[C@H](C)[C@H](NC(=O)[C@@H](Cc1c[nH]c2ccccc12)NC(=O)[C@@H]1CCCN1C(=O)[C@H](CCCN=C(N)N)NC(=O)[C@H](CCCN=C(N)N)NC(=O)[C@@H]1CCCN1C(=O)[C@H](CCCCN)NC(=O)[C@H](CC(N)=O)NC(=O)[C@H](CCC(=O)O)NC(=O)[C@H](Cc1ccc(O)cc1)NC(=O)[C@H](CC(C)C)NC(=O)[C@@H]1CCC(=O)N1)C(=O)N[C@@H](CC(C)C)C(=O)O    0.64
CC(C)C[C@H](NC(=O)[C@@H]1CCC(=O)N1)C(=O)N[C@@H](Cc1ccc(O)cc1)C(=O)N[C@@H](CCC(=O)O)C(=O)N[C@@H](CC(N)=O)C(=O)N[C@@H](CCCCN)C(=O)N1CCC[C@H]1C(=O)N[C@@H](CCCN=C(N)N)C(=O)N[C@@H](CCCN=C(N)N)C(=O)N1CCC[C@H]1C(=O)O    0

Ask: Look up Relative potency for this compound: CC[C@H](C)[C@H](NC(=O)[C@H](Cc1ccc(O)cc1)NC(=O)[C@@H]1CCCN1C(=O)[C@@H](N)CCCN=C(N)N)C(=O)N[C@@H](CC(C)C)C(=O)O
Reply: 11

Reference for the values: ChEMBL document CHEMBL1121808
